Hello, the source for this data is ChEMBL document CHEMBL4177770, in case you need it.

- system name: Nonstructural protein 5A (Hepatitis C virus)
- Sequence (whole entry): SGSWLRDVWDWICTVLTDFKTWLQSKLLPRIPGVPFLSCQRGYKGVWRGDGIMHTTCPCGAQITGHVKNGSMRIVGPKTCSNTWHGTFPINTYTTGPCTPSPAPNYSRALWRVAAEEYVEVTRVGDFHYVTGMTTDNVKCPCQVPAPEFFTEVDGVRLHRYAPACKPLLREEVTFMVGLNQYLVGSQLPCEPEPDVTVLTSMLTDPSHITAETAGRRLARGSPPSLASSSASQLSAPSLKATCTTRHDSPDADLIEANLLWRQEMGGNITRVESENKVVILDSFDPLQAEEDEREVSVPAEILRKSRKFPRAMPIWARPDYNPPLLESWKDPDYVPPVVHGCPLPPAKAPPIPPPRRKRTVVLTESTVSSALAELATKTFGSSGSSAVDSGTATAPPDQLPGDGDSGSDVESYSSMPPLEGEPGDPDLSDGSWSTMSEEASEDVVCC
- measurement notes: Inhibition of NS5A L31M mutant in HCV genotype 2b infected in HuH7 replicon cells assessed as decrease in viral replication after 3 days by RT-PCR method
- Type: cell-based
- assay conditions: Hepatitis C virus subtype 2b

compound: COC(=O)N[C@H](C(=O)N1CCC[C@H]1c1ncc(-c2cc(F)c3c(c2)O[C@@H](c2cc4c(s2)CCC4)n2c-3cc3cc(-c4cnc([C@@H]5CCCN5C(=O)[C@@H](NC(=O)OC)C5CCOCC5)[nH]4)ccc32)[nH]1)C(C)C
EC90: 64 pM

compound: COC(=O)N[C@H](C(=O)N1CCC[C@H]1c1ncc(-c2cc(F)c3c(c2)O[C@@H](c2ccc(C4CC4)s2)n2c-3cc3cc(-c4cnc([C@@H]5CCCN5C(=O)[C@@H](NC(=O)OC)C5CCO[C@H](C)C5)[nH]4)ccc32)[nH]1)C(C)C (some centres not stated)
EC90: 14 pM

----------
- measurement notes: Half life in Wistar Han rat at 2 mg/kg, iv by LC/MS method
- Format: ADME, organism-based
- assay conditions: in vivo
Output Criterion met for half-life not less than 300 min; output Criterion not met otherwise.

compound: CCc1ncc([C@@H]2Oc3cc(-c4cnc([C@@H]5CCCN5C(=O)[C@@H](NC(=O)OC)C(C)C)[nH]4)cc(F)c3-c3cc4cc(-c5cnc([C@@H]6CCCN6C(=O)[C@@H](NC(=O)OC)[C@@H]6CCOC(C)(C)C6)[nH]5)ccc4n32)s1
class name: Criterion met
//
compound: COC(=O)N[C@H](C(=O)N1CCC[C@H]1c1ncc(-c2ccc3c(c2)cc2n3[C@H](c3ccc4c(c3)OCCC4)Oc3cc(-c4cnc([C@@H]5CCCN5C(=O)[C@@H](NC(=O)OC)C5CCOCC5)[nH]4)cc(F)c3-2)[nH]1)C(C)C
class name: Criterion not met
//
compound: COC(=O)N[C@H](C(=O)N1CCC[C@H]1c1ncc(-c2cc(F)c3c(c2)O[C@@H](c2ccc(C4CC4)s2)n2c-3cc3cc(-c4cnc([C@@H]5CCCN5C(=O)[C@@H](NC(=O)OC)C5CC(C)(C)OC(C)(C)C5)[nH]4)ccc32)[nH]1)C(C)C
class name: Criterion met
//
compound: COC(=O)N[C@H](C(=O)N1CCC[C@H]1c1ncc(-c2cc(F)c3c(c2)O[C@@H](c2ccc(C4CC4)s2)n2c-3cc3cc(-c4cnc([C@@H]5CCCN5C(=O)[C@@H](NC(=O)OC)C5CCOC6(CC6)C5)[nH]4)ccc32)[nH]1)C(C)C (stereo partly drawn)
class name: Criterion met
//
compound: CCCc1ncc([C@@H]2Oc3cc(-c4cnc([C@@H]5CCCN5C(=O)[C@@H](NC(=O)OC)C(C)C)[nH]4)cc(F)c3-c3cc4cc(-c5cnc([C@@H]6CCCN6C(=O)[C@@H](NC(=O)OC)[C@@H]6CCOC(C)(C)C6)[nH]5)ccc4n32)s1
class name: Criterion not met
//
compound: COC(=O)N[C@H](C(=O)N1CCC[C@H]1c1ncc(-c2cc(F)c3c(c2)O[C@@H](c2ccc(C(C)C)s2)n2c-3cc3cc(-c4cnc([C@@H]5CCCN5C(=O)[C@@H](NC(=O)OC)[C@@H]5CCOC(C)(C)C5)[nH]4)ccc32)[nH]1)C(C)C
class name: Criterion met
//
compound: CCc1ccc([C@@H]2Oc3cc(-c4cnc([C@@H]5CCCN5C(=O)[C@@H](NC(=O)OC)[C@@H]5CCOC(C)(C)C5)[nH]4)cc(F)c3-c3cc4cc(-c5cnc([C@@H]6CCCN6C(=O)[C@@H](NC(=O)OC)C(C)C)[nH]5)ccc4n32)s1
class name: Criterion met
//
compound: COC(=O)N[C@H](C(=O)N1CCC[C@H]1c1ncc(-c2cc(F)c3c(c2)O[C@@H](c2ccc4c(c2)OCCC4)n2c-3cc3cc(-c4cnc([C@@H]5CCCN5C(=O)[C@@H](NC(=O)OC)[C@@H]5CCOC(C)(C)C5)[nH]4)ccc32)[nH]1)C(C)C
class name: Criterion not met

----------
Each entry below carries its reported MRT.
- measurement notes: MRT in Wistar Han rat at 10 mg/kg, po by LC/MS method
- Format: ADME, organism-based
- assay conditions: in vivo

compound: COC(=O)N[C@H](C(=O)N1CCC[C@H]1c1ncc(-c2cc(F)c3c(c2)O[C@@H](c2ccc(C4CC4)s2)n2c-3cc3cc(-c4cnc([C@@H]5CCCN5C(=O)[C@@H](NC(=O)OC)[C@@H]5CCOC(C)(C)C5)[nH]4)ccc32)[nH]1)C(C)C
MRT: 6.5 h
--
compound: COC(=O)N[C@H](C(=O)N1CCC[C@H]1c1ncc(-c2cc(F)c3c(c2)O[C@@H](c2ccc(C4CC4)s2)n2c-3cc3cc(-c4cnc([C@@H]5CCCN5C(=O)[C@@H](NC(=O)OC)C5CCOCC5)[nH]4)ccc32)[nH]1)C(C)C
MRT: 7.9 h
--
compound: COC(=O)N[C@H](C(=O)N1CCC[C@H]1c1ncc(-c2cc(F)c3c(c2)O[C@@H](c2ccc(C4CC4)s2)n2c-3cc3cc(-c4cnc([C@@H]5CCCN5C(=O)[C@@H](NC(=O)OC)C5C[C@@H](C)O[C@H](C)C5)[nH]4)ccc32)[nH]1)C(C)C (some centres undefined)
MRT: 6 h
--
compound: COC(=O)N[C@H](C(=O)N1CCC[C@H]1c1ncc(-c2cc(F)c3c(c2)O[C@@H](c2ccc(C4CC4)s2)n2c-3cc3cc(-c4cnc([C@@H]5CCCN5C(=O)[C@@H](NC(=O)OC)C5C[C@@H](C)O[C@@H](C)C5)[nH]4)ccc32)[nH]1)C(C)C (some centres undefined)
MRT: 9 h

----------
Collected Tmax values appear next to each entry.
- measurement notes: Tmax in Wistar Han rat at 10 mg/kg, po by LC/MS method
- Type: ADME, organism-based
- assay conditions: in vivo

compound: COC(=O)N[C@H](C(=O)N1CCC[C@H]1c1ncc(-c2cc(F)c3c(c2)O[C@@H](c2ccc(C4CC4)s2)n2c-3cc3cc(-c4cnc([C@@H]5CCCN5C(=O)[C@@H](NC(=O)OC)C5C[C@@H](C)O[C@H](C)C5)[nH]4)ccc32)[nH]1)C(C)C (some centres undefined)
Tmax [h]: 3
--
compound: COC(=O)N[C@H](C(=O)N1CCC[C@H]1c1ncc(-c2cc(F)c3c(c2)O[C@@H](c2ccc(C4CC4)s2)n2c-3cc3cc(-c4cnc([C@@H]5CCCN5C(=O)[C@@H](NC(=O)OC)C5CCOCC5)[nH]4)ccc32)[nH]1)C(C)C
Tmax [h]: 3
--
compound: COC(=O)N[C@H](C(=O)N1CCC[C@H]1c1ncc(-c2cc(F)c3c(c2)O[C@@H](c2ccc(C4CC4)s2)n2c-3cc3cc(-c4cnc([C@@H]5CCCN5C(=O)[C@@H](NC(=O)OC)C5C[C@@H](C)O[C@@H](C)C5)[nH]4)ccc32)[nH]1)C(C)C (some centres undefined)
Tmax [h]: 4
--
compound: COC(=O)N[C@H](C(=O)N1CCC[C@H]1c1ncc(-c2cc(F)c3c(c2)O[C@@H](c2ccc(C4CC4)s2)n2c-3cc3cc(-c4cnc([C@@H]5CCCN5C(=O)[C@@H](NC(=O)OC)[C@@H]5CCOC(C)(C)C5)[nH]4)ccc32)[nH]1)C(C)C
Tmax [h]: 3

----------
- system name: Nonstructural protein 5A (Hepatitis C virus) (UniProt Q5L478)
- measurement notes: Inhibition of NS5A in HCV genotype 1b infected in HuH7 replicon cells assessed as decrease in viral replication after 3 days by RT-PCR method
- Assay type: cell-based
- assay conditions: Hepatitis C virus subtype 1b

molecule: COC(=O)N[C@H](C(=O)N1CCC[C@H]1c1ncc(-c2cc(F)c3c(c2)O[C@@H](c2ccc4c(c2)O[C@@H](C)CC4)n2c-3cc3cc(-c4cnc([C@@H]5CCCN5C(=O)[C@@H](NC(=O)OC)[C@@H]5CCOC(C)(C)C5)[nH]4)ccc32)[nH]1)C(C)C
system name: Nonstructural protein 5A (Hepatitis C virus) (UniProt Q5L478)
EC90, pM: 7

molecule: COC(=O)N[C@H](C(=O)N1CCC[C@H]1c1ncc(-c2cc(F)c3c(c2)O[C@@H](c2ccc(C4CC4)s2)n2c-3cc3cc(-c4cnc([C@@H]5CCCN5C(=O)[C@@H](NC(=O)OC)C5CC(C)(C)OC(C)(C)C5)[nH]4)ccc32)[nH]1)C(C)C
system name: Nonstructural protein 5A (Hepatitis C virus) (UniProt Q5L478)
EC90, pM: 2
